Numbers sourced from patent US6656936B1.

Would you mind telling me the reported reduction of infective viral titer of each entry?
Test system: HIV-1 (RF strain)
Assay: In vitro anti-HIV cell-free inactivation assay
Assay type: cell-based
Conditions: 0.32 mg/mL, 2 minutes exposure
Give bare numbers, in log units.

Some solved entries appear below for comparison.
CCCCCCCCCCC[C@@]1(O)C[N+](C)(C)C[C@@H](CC(=O)[O-])O1	0.8
CCCCCCCCCC[C@@]1(O)C[N+](C)(C)C[C@@H](CC(=O)[O-])O1	0.8
CCCCCCCCCCCCCC[C@@]1(O)C[N+](C)(C)C[C@@H](CC(=O)[O-])O1	2.8

Dear colleague, could you please provide reduction of infective viral titer for the compounds listed below?
1. CCCCCCCCCCCCCCC[C@@]1(O)C[N+](C)(C)C[C@@H](CC(=O)[O-])O1
2. CCCCCCCCCCCC[C@@]1(O)C[N+](C)(C)C[C@@H](CC(=O)[O-])O1
3. CCCCCCCCCCCCC[C@@]1(O)C[N+](C)(C)C[C@@H](CC(=O)[O-])O1

a:
1: 2.7; 2: 2.0; 3: 2.7
